Procedure summary: in vivo
Applied conditions: cercopithecidae, iv, 0.5 mg/kg
Experimental endpoint: clearance

Exercise: // clearance lookup, key: C[C@]1(C(=O)O)CCc2ccc(OCCCOc3ccc(OCC(F)(F)F)cc3Cl)cc2O1
Key: 5.6 mL/min/kg

====

As shown below, each of these molecules has a reported pEC50 value.
Target entity: Peroxisome proliferator-activated receptor alpha (Homo sapiens, UniProt Q07869)
Sequence (Q07869 whole entry): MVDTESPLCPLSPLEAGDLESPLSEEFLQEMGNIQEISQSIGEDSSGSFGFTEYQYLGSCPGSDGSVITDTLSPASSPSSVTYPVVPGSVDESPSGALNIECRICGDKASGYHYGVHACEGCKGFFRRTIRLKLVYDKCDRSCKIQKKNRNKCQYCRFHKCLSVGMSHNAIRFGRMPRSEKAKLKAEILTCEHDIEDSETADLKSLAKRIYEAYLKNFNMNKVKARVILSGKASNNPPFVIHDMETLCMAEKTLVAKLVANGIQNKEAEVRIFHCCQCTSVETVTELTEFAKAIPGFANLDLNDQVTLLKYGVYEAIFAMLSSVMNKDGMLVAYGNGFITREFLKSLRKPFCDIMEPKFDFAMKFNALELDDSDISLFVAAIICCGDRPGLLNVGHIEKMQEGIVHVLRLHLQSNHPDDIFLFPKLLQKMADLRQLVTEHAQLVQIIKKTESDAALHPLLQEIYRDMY
Type: functional, cell-based, COS-1
Description: Agonist activity against human PPARalpha in COS-1 cell Gal4 assay
Give only the number. pEC50 is defined as minus log10 of concentration in molar units.

# Molecule, pEC50
measured = [
    ("CC(C)(C)c1ccc(OCCCOc2ccc3c(c2)O[C@@](C)(C(=O)O)CC3)c(Cl)c1", 7.10),
    ("O=C(O)C1CCc2ccc(OCCCOc3ccc(OCC(F)(F)F)cc3Cl)cc2O1 (centres undefined)", 6.92),
    ("CC[C@]1(C(=O)O)CCc2ccc(OCCCOc3ccc(C(C)C)cc3Cl)cc2O1", 7.62),
]

Please look at the following molecule next.
Exercise: // query pEC50 value for entry CCOc1ccc(OCCCOc2ccc3c(c2)O[C@@](C)(C(=O)O)CC3)c(Cl)c1
Key: 6.66
